- Tested on: Bacteroides stercoris
- method notes: growth AUC relative to DMSO control (median of replicates) (fraction); higher = more growth (less inhibition), active = hit call of the paper
- test parameters: 20 µM; 24 h
value kind: growth AUC

- compound: "COc1cc(OC)nc(NC(=O)NS(=O)(=O)c2ncccc2C(=O)N(C)C)n1"
  target or system: "Bacteroides stercoris"
  value kind: "growth AUC"
  numeric value: 1.11
- compound: "COC(=O)Nc1cccc(OC(=O)Nc2cccc(C)c2)c1"
  target or system: "Bacteroides stercoris"
  value kind: "growth AUC"
  numeric value: 0.99
- compound: "CCc1cccc(C)c1N(C(=O)CCl)C(C)COC (stereo unspecified)"
  target or system: "Bacteroides stercoris"
  value kind: "growth AUC"
  numeric value: 1.26
- compound: "CCOP(=S)(OCC)SCSP(=S)(OCC)OCC"
  target or system: "Bacteroides stercoris"
  value kind: "growth AUC"
  numeric value: 1.04
- compound: "CCNc1nc(Cl)nc(NC(C)(C)C#N)n1"
  target or system: "Bacteroides stercoris"
  value kind: "growth AUC"
  numeric value: 0.946
- compound: "CCOP(=S)(OCC)SCSC(C)(C)C"
  target or system: "Bacteroides stercoris"
  value kind: "growth AUC"
  numeric value: 0.988
- compound: "CCOP(=S)(OCC)OP(=S)(OCC)OCC"
  target or system: "Bacteroides stercoris"
  value kind: "growth AUC"
  numeric value: 1.02
- compound: "CCCSP(=O)(OCC)Oc1ccc(Br)cc1Cl (stereo unspecified)"
  target or system: "Bacteroides stercoris"
  value kind: "growth AUC"
  numeric value: 1.17
- compound: "CC(C)=CC1C(C(=O)OC(C#N)c2cccc(Oc3ccccc3)c2)C1(C)C (mixture of isomers)"
  target or system: "Bacteroides stercoris"
  value kind: "growth AUC"
  numeric value: 1.11
- compound: "CCC1(C(=O)NC(C)c2ccc(Cl)cc2)C(C)C1(Cl)Cl (stereo unspecified)"
  target or system: "Bacteroides stercoris"
  value kind: "growth AUC"
  numeric value: 0.958
- compound: "CSc1nc(N=[N+]=[N-])nc(NC(C)C)n1"
  target or system: "Bacteroides stercoris"
  value kind: "growth AUC"
  numeric value: 0.975
